Source: patent US20190241669A1

biological target: Human BCMA (human) (UniProt Q02223); assay: SPR, IgG immobilised, huBCMA analyte, 37 C
kon for assorted binders

{"columns": ["binder", "unitInfo", "kon"],
 "data": [
  ["L3.PY/L3.KY/H2.QR (antibody, V domains shown, IgG) VH: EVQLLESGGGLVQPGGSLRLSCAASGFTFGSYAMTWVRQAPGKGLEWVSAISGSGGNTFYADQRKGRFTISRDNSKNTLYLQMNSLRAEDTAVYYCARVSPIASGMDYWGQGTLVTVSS VL: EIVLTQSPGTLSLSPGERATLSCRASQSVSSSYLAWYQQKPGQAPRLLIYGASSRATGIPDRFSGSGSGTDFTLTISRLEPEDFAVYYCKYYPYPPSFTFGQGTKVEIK", "M⁻¹ s⁻¹", "2.95e+06"],
  ["L3.PY/L1.PH/H2.QR (antibody, V domains shown, IgG) VH: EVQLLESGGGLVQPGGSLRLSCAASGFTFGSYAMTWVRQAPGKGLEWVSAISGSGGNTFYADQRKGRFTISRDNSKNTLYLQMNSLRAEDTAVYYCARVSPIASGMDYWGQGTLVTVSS VL: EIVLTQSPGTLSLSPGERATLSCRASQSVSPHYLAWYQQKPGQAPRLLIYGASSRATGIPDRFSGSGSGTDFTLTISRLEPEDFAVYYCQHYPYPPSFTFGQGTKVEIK", "M⁻¹ s⁻¹", "3.69e+06"],
  ["L3.PY/L3.KY/H2.YQ (antibody, V domains shown, IgG) VH: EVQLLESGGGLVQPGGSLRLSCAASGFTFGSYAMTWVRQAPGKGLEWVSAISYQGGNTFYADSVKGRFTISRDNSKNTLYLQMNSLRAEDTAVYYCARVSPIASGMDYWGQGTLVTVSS VL: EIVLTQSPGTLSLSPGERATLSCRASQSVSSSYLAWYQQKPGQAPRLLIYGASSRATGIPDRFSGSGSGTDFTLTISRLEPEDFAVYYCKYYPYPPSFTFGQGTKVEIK", "M⁻¹ s⁻¹", "2.14e+06"]
]}
